Where do the numbers come from? From patent US11912794B2.

# key: entry, value: Frequency (relative abundance in the total selection outputs)
target: Biotinylated hPK (Homo sapiens, UniProt P03952); construct: IHPKA, from human plasma; purchased Innovative Research, Novi, MI, USA IHPKA; host or cells: human plasma; assay: Phage selections, abundance of sequences in selection outputs; format: binding; details: randomised WPAR motif at positions 2, 3, 4 & 5 within the 06-34-03 sequence
Sequence (P03952 20-638): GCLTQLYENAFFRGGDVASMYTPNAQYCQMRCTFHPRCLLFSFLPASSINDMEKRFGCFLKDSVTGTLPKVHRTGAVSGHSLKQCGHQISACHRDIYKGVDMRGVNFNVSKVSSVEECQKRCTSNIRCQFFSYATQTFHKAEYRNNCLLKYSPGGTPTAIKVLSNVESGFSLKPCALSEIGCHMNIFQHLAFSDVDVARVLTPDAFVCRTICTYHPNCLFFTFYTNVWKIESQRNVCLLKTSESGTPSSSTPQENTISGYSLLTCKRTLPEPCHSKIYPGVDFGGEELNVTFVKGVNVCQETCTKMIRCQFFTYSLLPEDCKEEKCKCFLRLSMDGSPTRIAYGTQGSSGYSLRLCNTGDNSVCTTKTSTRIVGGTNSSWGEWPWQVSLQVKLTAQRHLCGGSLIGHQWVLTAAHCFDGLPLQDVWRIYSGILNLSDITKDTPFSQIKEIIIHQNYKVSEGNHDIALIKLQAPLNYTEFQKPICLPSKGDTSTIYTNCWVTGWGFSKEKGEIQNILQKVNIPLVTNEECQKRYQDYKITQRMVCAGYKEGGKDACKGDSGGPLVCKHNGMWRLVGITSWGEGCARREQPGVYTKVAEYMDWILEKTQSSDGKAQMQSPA
Respond numerically, and do not add a unit to the figure.

>>> reported_measurement("SEQ ID NO: 73 (CSWPARCTHQDLC; Synthetic sequence Kallikrein binder identified from selections using a randomised WPAR motif at positions 2, 3, 4 & 5 within the 06-34-03 sequence of PCT/EP2012/069898 (SEQ ID NO 58))")
24
>>> reported_measurement("SEQ ID NO: 110 (CSQVVGCTHQDLC; Synthetic sequence Kallikrein binder identified from selections using a randomised WPAR motif at positions 2, 3, 4 & 5 within the 06-34-03 sequence of PCT/EP2012/069898 (SEQ ID NO 58))")
1
>>> reported_measurement("SEQ ID NO: 94 (CSFPYKCTHQDLC; Synthetic sequence Kallikrein binder identified from selections using a randomised WPAR motif at positions 2, 3, 4 & 5 within the 06-34-03 sequence of PCT/EP2012/069898 (SEQ ID NO 58))")
1

Q: Name the reported Frequency (relative abundance in the total selection outputs) value associated with the substance SEQ ID NO: 87 (CSFPIRCTHQDLC; Synthetic sequence Kallikrein binder identified from selections using a randomised WPAR motif at positions 2, 3, 4 & 5 within the 06-34-03 sequence of PCT/EP2012/069898 (SEQ ID NO 58))
A: 1

Q: Name the reported Frequency (relative abundance in the total selection outputs) value associated with the substance SEQ ID NO: 84 (CSFPFRCTHQDLC; Synthetic sequence Kallikrein binder identified from selections using a randomised WPAR motif at positions 2, 3, 4 & 5 within the 06-34-03 sequence of PCT/EP2012/069898 (SEQ ID NO 58))
A: 2

Q: Name the reported Frequency (relative abundance in the total selection outputs) value associated with the substance SEQ ID NO: 104 (CSIPFKCTHQDLC; Synthetic sequence Kallikrein binder identified from selections using a randomised WPAR motif at positions 2, 3, 4 & 5 within the 06-34-03 sequence of PCT/EP2012/069898 (SEQ ID NO 58))
A: 1

Q: Name the reported Frequency (relative abundance in the total selection outputs) value associated with the substance SEQ ID NO: 79 (CSWAARCTHQDLC; Synthetic sequence Kallikrein binder identified from selections using a randomised WPAR motif at positions 2, 3, 4 & 5 within the 06-34-03 sequence of PCT/EP2012/069898 (SEQ ID NO 58))
A: 1

---

molecular target: human plasma Kallikrein (Homo sapiens, UniProt P03952); construct: purchased Stratech, UK; experiment: Functional enzyme inhibition assay, fluorogenic substrate Z-PheArg-AMC; type: biochemical; settings: Ki (nM) (human kallikrein), Ac-06-34-18(TMB)-NH2 series
Sequence (P03952 20-638): as above
Numbered stars: 1 amine (or outer) side, 2 acyl side, 3 side chain; on linkers, the order of the positions; unused ones are H or OH. Bridge positions count the residues as written; N and C are the ends. Square brackets hold non-standard residues; d marks the D form. Peptide text beside a SMILES is read from it. TBMB = c1c(C[*:1])cc(C[*:3])cc1C[*:2]; Cha = N[C@@H](CC1CCCCC1)C(=O)O; Aib = CC(C)(N)C(=O)O
READOUT KIND: Ki (nM)
# number only, unit nM dropped from output

>>> reported_measurement("CC(=O)N[C@H]1CSCc2cc3cc(c2)CSC[C@H](NC(=O)[C@H](CCCNC(=N)N)NC(=O)C(C)(C)NC(=O)[C@@H]2CCCN2C(=O)[C@H](Cc2c[nH]c4ccccc24)NC(=O)[C@H](CO)NC1=O)C(=O)N[C@@H](CC(C)C)C(=O)N[C@@H](Cc1c[nH]cn1)C(=O)N[C@@H](CCC(N)=O)C(=O)N[C@@H](CC(=O)O)C(=O)N[C@@H](CC(C)C)C(=O)N[C@H](C(N)=O)CSC3 [Ac-(06-34-18) Aib4] (Ac-CSWP[Aib]RCLHQDLC-NH2; linker 1-7-13 via TBMB)")
289

Let us move to another entry and its Ki.
Q: Name the reported Ki value associated with the compound CC(=O)N[C@H]1CSCc2cc3cc(c2)CSC[C@H](NC(=O)[C@H](CCCNC(=N)N)NC(=O)[C@H](CC2CCCCC2)NC(=O)[C@@H]2CCCN2C(=O)[C@H](Cc2ccccc2)NC(=O)[C@H](CO)NC1=O)C(=O)N[C@@H](CC(C)C)C(=O)N[C@@H](Cc1c[nH]cn1)C(=O)N[C@@H](CCC(N)=O)C(=O)N[C@@H](CC(=O)O)C(=O)N[C@@H](CC(C)C)C(=O)N[C@H](C(N)=O)CSC3 [Ac-(06-34-18) Phe2 Cha4] (Ac-CSFP[Cha]RCLHQDLC-NH2; linker 1-7-13 via TBMB)
A: 0.91

---

# key: entry, value: Rank (sequences ranked according to Kallikrein binding)
target: biotinylated human plasma Kallikrein (Homo sapiens, UniProt P03952); test: Phage binding assay of individual clones, randomisation of peptide domains; conditions: randomised WPAR motif at positions 2, 3, 4 & 5 within the 06-34-03 sequence; 1 = best binding
Sequence (P03952 20-638): as above
Respond numerically, and do not add a unit to the figure.

>>> reported_measurement("SEQ ID NO: 85 (CSLPFRCTHQDLC; Synthetic sequence Kallikrein binder identified from selections using a randomised WPAR motif at positions 2, 3, 4 & 5 within the 06-34-03 sequence of PCT/EP2012/069898 (SEQ ID NO 58))")
13
>>> reported_measurement("SEQ ID NO: 75 (CSFPFRCTHQDLC; Synthetic sequence Kallikrein binder identified from selections using a randomised WPAR motif at positions 2, 3, 4 & 5 within the 06-34-03 sequence of PCT/EP2012/069898 (SEQ ID NO 58))")
3
>>> reported_measurement("SEQ ID NO: 89 (CSLPFRCTHQDLC; Synthetic sequence Kallikrein binder identified from selections using a randomised WPAR motif at positions 2, 3, 4 & 5 within the 06-34-03 sequence of PCT/EP2012/069898 (SEQ ID NO 58))")
17
>>> reported_measurement("SEQ ID NO: 88 (CSLPFKCTHQDLC; Synthetic sequence Kallikrein binder identified from selections using a randomised WPAR motif at positions 2, 3, 4 & 5 within the 06-34-03 sequence of PCT/EP2012/069898 (SEQ ID NO 58))")
16
>>> reported_measurement("SEQ ID NO: 92 (CSLPFKCTHQDLC; Synthetic sequence Kallikrein binder identified from selections using a randomised WPAR motif at positions 2, 3, 4 & 5 within the 06-34-03 sequence of PCT/EP2012/069898 (SEQ ID NO 58))")
20
>>> reported_measurement("SEQ ID NO: 84 (CSFPFRCTHQDLC; Synthetic sequence Kallikrein binder identified from selections using a randomised WPAR motif at positions 2, 3, 4 & 5 within the 06-34-03 sequence of PCT/EP2012/069898 (SEQ ID NO 58))")
12

Q: Name the reported Rank (sequences ranked according to Kallikrein binding) value associated with the substance SEQ ID NO: 97 (CSLPFRCTHQDLC; Synthetic sequence Kallikrein binder identified from selections using a randomised WPAR motif at positions 2, 3, 4 & 5 within the 06-34-03 sequence of PCT/EP2012/069898 (SEQ ID NO 58))
A: 25

---

biological target: human plasma Kallikrein (Homo sapiens); construct: purchased Stratech, UK; assay: Functional enzyme inhibition assay, fluorogenic substrate Z-PheArg-AMC; assay type: biochemical; conditions: vs Ac-06-34-18(TMB)-NH2
Numbered stars: 1 amine (or outer) side, 2 acyl side, 3 side chain; on linkers, the order of the positions; unused ones are H or OH. Bridge positions count the residues as written; N and C are the ends. Peptide text beside a SMILES is read from it. TBMB = c1c(C[*:1])cc(C[*:3])cc1C[*:2]
# key: entry, value: loss in potency / reduction in affinity compared to wildtype
# number only, unit fold dropped from output

Some solved cases for reference:
>>> reported_measurement("CC(=O)N[C@H]1CSCc2cc3cc(c2)CSC[C@H](NC(=O)[C@H](CCCNC(=N)N)NC(=O)[C@@H](C)NC(=O)[C@@H]2CCCN2C(=O)[C@H](Cc2c[nH]c4ccccc24)NC(=O)[C@H](CO)NC1=O)C(=O)N[C@@H](CC(C)C)C(=O)N[C@@H](Cc1c[nH]cn1)C(=O)N[C@@H](CCC(N)=O)C(=O)N[C@@H](CC(=O)O)C(=O)N[C@@H](CC(C)C)C(=O)N[C@H](C(N)=O)CSC3 [Ac-(06-34-18) D-Ala4]")
7000
>>> reported_measurement("CC(=O)N[C@H]1CSCc2cc3cc(c2)CSC[C@H](NC(=O)[C@@H](CCCNC(=N)N)NC(=O)[C@H](C)NC(=O)[C@@H]2CCCN2C(=O)[C@H](Cc2c[nH]c4ccccc24)NC(=O)[C@H](CO)NC1=O)C(=O)N[C@@H](CC(C)C)C(=O)N[C@@H](Cc1c[nH]cn1)C(=O)N[C@@H](CCC(N)=O)C(=O)N[C@@H](CC(=O)O)C(=O)N[C@@H](CC(C)C)C(=O)N[C@H](C(N)=O)CSC3 [Ac-(06-34-18) D-Arg5]")
300
>>> reported_measurement("CC(=O)N[C@H]1CSCc2cc3cc(c2)CSC[C@H](NC(=O)[C@H](CCCNC(=N)N)NC(=O)[C@H](C)NC(=O)[C@@H]2CCCN2C(=O)[C@H](Cc2ccccc2)NC(=O)[C@H](CO)NC1=O)C(=O)N[C@@H](CC(C)C)C(=O)N[C@@H](Cc1c[nH]cn1)C(=O)N[C@@H](CCC(N)=O)C(=O)N[C@@H](CC(=O)O)C(=O)N[C@@H](CC(C)C)C(=O)N[C@H](C(N)=O)CSC3 [Ac-(06-34-18) FPAR] (Ac-CSFPARCLHQDLC-NH2; linker 1-7-13 via TBMB)")
40

Let us move to another entry and its loss in potency / reduction in affinity compared to wildtype.
Q: Name the reported loss in potency / reduction in affinity compared to wildtype value associated with the compound CC(=O)N[C@H]1CSCc2cc3cc(c2)CSC[C@H](NC(=O)[C@H](Cc2ccc(NC(=N)N)cc2)NC(=O)[C@H](C)NC(=O)[C@@H]2CCCN2C(=O)[C@H](Cc2c[nH]c4ccccc24)NC(=O)[C@H](CO)NC1=O)C(=O)N[C@@H](CC(C)C)C(=O)N[C@@H](Cc1c[nH]cn1)C(=O)N[C@@H](CCC(N)=O)C(=O)N[C@@H](CC(=O)O)C(=O)N[C@@H](CC(C)C)C(=O)N[C@H](C(N)=O)CSC3 [Ac-(06-34-18) 4GuanPhe5]
A: 2
